These entries and their values trace back to paper PMC6496074.

Target: CaCYP51 Y132F+F145L (Candida albicans, UniProt P10613, F145L/Y132F)
Assay: Azole ligand binding (type II difference spectra)
Quantity: Kd (nM)
One number for each entry, in nM.

# return recorded Kd for entry OC(Cn1cncn1)(Cn1cncn1)c1ccc(F)cc1F [Fluconazole, fluconazole]
202

---

Molecular target: CaCYP51 D278N+G464S (Candida albicans, UniProt P10613, D278N/G464S)
Assay: Azole ligand binding (type II difference spectra)
Conditions: 4 μM protein, 22°C, ± standard deviation, triplicate, read-out: dissociation constant (Kd)
Quantity: pKd
Give bare numbers, as −log10 of the molar value.

Give the reported pKd for this compound. OC(Cn1cncn1)(Cn1cncn1)c1ccc(F)cc1F [Fluconazole, fluconazole]
7.82

---

Molecular target: CaCYP51 K143R (Candida albicans, UniProt P10613, K143R)
Sequence (P10613 whole entry, looked up, stated change not applied): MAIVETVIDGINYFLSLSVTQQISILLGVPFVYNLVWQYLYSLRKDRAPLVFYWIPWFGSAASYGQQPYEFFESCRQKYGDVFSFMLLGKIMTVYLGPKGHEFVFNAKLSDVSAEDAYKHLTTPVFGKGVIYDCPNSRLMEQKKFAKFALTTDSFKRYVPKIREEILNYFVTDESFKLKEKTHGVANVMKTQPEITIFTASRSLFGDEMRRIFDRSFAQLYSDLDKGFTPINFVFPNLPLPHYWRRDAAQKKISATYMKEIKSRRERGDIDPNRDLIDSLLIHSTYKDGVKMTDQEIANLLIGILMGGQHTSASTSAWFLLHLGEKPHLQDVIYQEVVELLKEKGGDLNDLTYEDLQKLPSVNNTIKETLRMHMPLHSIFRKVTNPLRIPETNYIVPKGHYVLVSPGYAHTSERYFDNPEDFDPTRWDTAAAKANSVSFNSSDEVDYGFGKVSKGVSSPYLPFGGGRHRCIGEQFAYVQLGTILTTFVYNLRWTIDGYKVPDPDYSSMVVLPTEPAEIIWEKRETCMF
Assay: CYP51 reconstitution assay
Conditions: mean ± SD, duplicate
Quantity: pIC50
Answers are plain numbers, as −log10 of the molar value.

Go through the items and report each one's pIC50.
1. CC[C@@H]([C@H](C)O)n1ncn(-c2ccc(N3CCN(c4ccc(OC[C@@H]5CO[C@@](Cn6cncn6)(c6ccc(F)cc6F)C5)cc4)CC3)cc2)c1=O [Posaconazole, posaconazole]
2. CCC(C)n1ncn(-c2ccc(N3CCN(c4ccc(OCC5COC(Cn6cncn6)(c6ccc(Cl)cc6Cl)O5)cc4)CC3)cc2)c1=O (stereo not drawn) [Itraconazole, itraconazole]
3. OC(Cn1cncn1)(Cn1cncn1)c1ccc(F)cc1F [Fluconazole, fluconazole]

1. 6.10
2. 6.35
3. 5.96

---

Biological target: CaCYP51 D278N (Candida albicans, UniProt P10613, D278N)
Construct: made in house; host or cells: E. coli DH5α (pCWori+)
Test: CYP51 reconstitution assay
Assay type: biochemical
Conditions: 0.25 h, 4 μM triazole, % of activity without triazole, read-out: Residual CYP51 activity (%) ± SD
Quantity: remaining activity at 4 µM

Compound: OC(Cn1cncn1)(Cn1cncn1)c1ccc(F)cc1F
remaining activity at 4 µM: 7.59%
//
Compound: CC[C@@H]([C@H](C)O)n1ncn(-c2ccc(N3CCN(c4ccc(OC[C@@H]5CO[C@@](Cn6cncn6)(c6ccc(F)cc6F)C5)cc4)CC3)cc2)c1=O
remaining activity at 4 µM: 14.8%
//
Compound: C[C@@H](c1ncncc1F)[C@](O)(Cn1cncn1)c1ccc(F)cc1F
remaining activity at 4 µM: 1.34%

Consider now this further compound.
Output measured remaining activity at 4 µM for this item: CCC(C)n1ncn(-c2ccc(N3CCN(c4ccc(OCC5COC(Cn6cncn6)(c6ccc(Cl)cc6Cl)O5)cc4)CC3)cc2)c1=O (stereo not shown)
3%

---

Molecular target: CaCYP51 G464S (Candida albicans, UniProt P10613, G464S)
Sequence (P10613 whole entry, looked up, stated change not applied): as above
Test: CYP51 reconstitution assay
Conditions: mean ± SD, duplicate
For each of the compounds below, state its IC50.
Write the numeric value and append its unit.

Compound: CCC(C)n1ncn(-c2ccc(N3CCN(c4ccc(OCC5COC(Cn6cncn6)(c6ccc(Cl)cc6Cl)O5)cc4)CC3)cc2)c1=O (stereo not drawn)
Val: 282 nM

Provide IC50 for all items below, preserving their order.
1. OC(Cn1cncn1)(Cn1cncn1)c1ccc(F)cc1F
2. CC[C@@H]([C@H](C)O)n1ncn(-c2ccc(N3CCN(c4ccc(OC[C@@H]5CO[C@@](Cn6cncn6)(c6ccc(F)cc6F)C5)cc4)CC3)cc2)c1=O

1. 455 nM
2. 253 nM
